Test: Solubility test, suspension filtered and filtrate analyzed by HPLC
Format: physicochemical
Conditions: thermodynamic from solid, water, 0.5 h, 25° C.
endpoint_label: solubility at 0.5 h (µg/mL)
One number for each entry, in µg/mL.

solubility at 0.5 h for N#Cc1ccc(-c2cnccc2SCC2(CC(=O)O)CC2)cc1 is 19
